The values you see were collected from ChEMBL document CHEMBL3813624.

Experiment: AUC (0 to 8 hrs) in dual transgenic mouse plasma expressing human CETP/ApoB-100 at 30 mg/kg, po
Format: ADME, organism-based
Set-up: dose 30 mg/kg, time < 8 hr, route oral
quantity.kind: AUC(0-t) at 8 h (µM·h)
Number in µM·h, nothing else.

# compound, observed.measurement
records = [
    ("O[C@H](CN[C@@](Cc1ccccc1)(c1cc(F)cc(OC(F)(F)C(F)F)c1)c1ccc(Cl)cn1)C(F)(F)F", 26.9),
]

Read the next record carefully.
In: Give AUC(0-t) at 8 h for OC(CN[C@@](Cc1ccccc1)(c1cc(F)cc(OC(F)(F)C(F)F)c1)c1ccc(Cl)cn1)CC(F)(F)F (some centres not stated)
Out: 18.1
